EXPERIMENTAL_SYSTEM: human kinase Mps-1 (Homo sapiens, UniProt P33981)
Construct: N-terminally GST-tagged human full length recombinant Mps-1 kinase
Sequence (P33981 1-857): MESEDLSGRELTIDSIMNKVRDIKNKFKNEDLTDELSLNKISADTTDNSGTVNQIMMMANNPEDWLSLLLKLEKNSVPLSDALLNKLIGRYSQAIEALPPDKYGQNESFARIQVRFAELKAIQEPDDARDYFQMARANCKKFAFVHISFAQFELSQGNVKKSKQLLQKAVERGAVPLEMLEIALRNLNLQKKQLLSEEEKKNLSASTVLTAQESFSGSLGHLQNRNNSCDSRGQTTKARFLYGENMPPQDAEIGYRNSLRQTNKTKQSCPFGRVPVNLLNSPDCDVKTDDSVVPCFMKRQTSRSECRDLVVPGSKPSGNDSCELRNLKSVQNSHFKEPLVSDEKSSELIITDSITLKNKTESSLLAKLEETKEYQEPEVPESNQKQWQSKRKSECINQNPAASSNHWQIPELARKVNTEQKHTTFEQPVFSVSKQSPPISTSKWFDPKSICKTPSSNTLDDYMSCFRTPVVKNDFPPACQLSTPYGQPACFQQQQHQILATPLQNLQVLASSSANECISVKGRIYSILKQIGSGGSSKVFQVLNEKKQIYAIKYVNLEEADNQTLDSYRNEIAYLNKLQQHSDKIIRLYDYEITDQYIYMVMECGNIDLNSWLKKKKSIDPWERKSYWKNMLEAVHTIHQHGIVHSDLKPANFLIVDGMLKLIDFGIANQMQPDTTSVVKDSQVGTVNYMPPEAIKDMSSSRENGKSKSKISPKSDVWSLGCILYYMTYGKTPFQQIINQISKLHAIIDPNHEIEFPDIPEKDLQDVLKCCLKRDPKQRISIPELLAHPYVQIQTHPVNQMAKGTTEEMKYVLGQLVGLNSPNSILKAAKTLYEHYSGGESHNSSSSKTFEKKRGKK
TEST_METHOD_NOTES: Mps-1 kinase assay (HTRF)
EXPERIMENTAL_SETUP: lowATP; mean; read-out: Mps1 lowATP mean IC50
pIC50: −log10 of the molar value.
Parameter: pIC50. Scope: all listed entries.
RECORDED_ENDPOINT: pIC50

* O=C(NC1CC1)c1ccc(-c2cnc3c(NCCN4CCNC4=O)nc4ccccc4n23)cc1 [Example 2-33] | 5.94
* Cn1nccc1CNc1nc2cc(C#N)ccc2n2c(-c3ccc(C(=O)NC4CC4)c(Cl)c3)cnc12 [Example 2-252] | 6.07
* CNC(=O)Nc1ccc(-c2cnc3c(NCc4ccccc4F)nc4cc(C)c(C)cc4n23)cc1 [Example 2-163] | 5.83

###

EXPERIMENTAL_SYSTEM: human kinase Mps-1 (Homo sapiens)
Construct: N-terminally GST-tagged human full length recombinant Mps-1 kinase; purchased Invitrogen, Karslruhe, Germany PV4071
TEST_METHOD_NOTES: Mps-1 kinase assay (HTRF)
Assay type: biochemical
EXPERIMENTAL_SETUP: lowATP; mean; read-out: Mps1 lowATP mean IC50
pIC50: −log10 of the molar value.
RECORDED_ENDPOINT: pIC50

- NS(=O)(=O)c1ccc(CNc2nc3ccccc3n3c(-c4ccc(C(=O)NC5CC5)cc4)cnc23)cc1: 6.80
- CC(C)CNc1nc2ccccc2n2c(-c3ccc(C(=O)NC4CCN(Cc5ccccc5)CC4)cc3)cnc12: 4.80
- CC(C)CNc1nc2ccccc2n2c(-c3ccsc3)cnc12: 5.29

###

EXPERIMENTAL_SYSTEM: human kinase Mps-1 (Homo sapiens)
Construct: N-terminally GST-tagged human full length recombinant Mps-1 kinase
TEST_METHOD_NOTES: Mps-1 kinase assay (HTRF)
EXPERIMENTAL_SETUP: lowATP; mean; read-out: Mps1 lowATP mean IC50
pIC50: −log10 of the molar value.
Where pIC50 equals or exceeds 5, the correct label is t; where it does not, the label is f.

• CNC(=O)Nc1ccc(-c2cnc3c(NCCCN4CCCC4=O)nc4cc(F)c(F)cc4n23)cc1 [Example 2-115] = f
• O=C(NC1CC1)c1ccc(-c2cnc3c(NCCCO)nc4cc(F)c(F)cc4n23)cc1Cl [Example 2-130] = t
• CNC(=O)Nc1ccc(-c2cnc3c(NCCCO)nc4cc(F)c(F)cc4n23)cc1 [Example 2-116] = t
• O=C(NC1CC1)c1ccc(-c2cnc3c(NCc4cccnc4)nc4ccc(F)cc4n23)cc1 [Example 2-54] = t
• Cn1cc(CNc2nc3cc(F)c(F)cc3n3c(-c4ccc(C(=O)NC5CC5)cc4)cnc23)cn1 [Example 2-111] = t

###

EXPERIMENTAL_SYSTEM: human kinase Mps-1 (Homo sapiens, UniProt P33981)
Construct: N-terminally GST-tagged human full length recombinant Mps-1 kinase
TEST_METHOD_NOTES: Mps-1 kinase assay (HTRF)
EXPERIMENTAL_SETUP: lowATP; mean; read-out: Mps1 lowATP mean IC50
pIC50: −log10 of the molar value.
RECORDED_ENDPOINT: pIC50

* N#Cc1ccc2c(c1)nc(NCCCN1CCOCC1)c1ncc(-c3ccc(C(=O)NC4CC4)c(Cl)c3)n12 | 4.82
* NC(=O)CCNc1nc2cc(F)c(F)cc2n2c(-c3ccc(C(=O)NC4CC4)cc3)cnc12 | 6.63
* O=C(NC1CC1)c1ccc(-c2cnc3c(NCCCCN4CCCC4)nc4ccccc4n23)cc1 | 6.49
* CNC(=O)c1ccc(-c2cnc3c(NCC(C)C)nc4ccccc4n23)cc1Cl | 5.62
* CCCNc1nc2cc(F)c(F)cc2n2c(-c3ccc(C(=O)NC4CC4)cc3)cnc12 | 7.54
* Cc1ccccc1CNc1nc2ccccc2n2c(-c3ccc(C(=O)NC4CC4)cc3)cnc12 | 6.63

###

EXPERIMENTAL_SYSTEM: human kinase Mps-1 (Homo sapiens)
Construct: N-terminally GST-tagged human full length recombinant Mps-1 kinase
TEST_METHOD_NOTES: Mps-1 kinase assay (HTRF)
EXPERIMENTAL_SETUP: lowATP; mean; read-out: Mps1 lowATP mean IC50
pIC50: −log10 of the molar value.
Parameter: pIC50. Scope: all listed entries.
RECORDED_ENDPOINT: pIC50

* CC(C)CNc1nc2ccccc2n2c(-c3ccc(C(=O)NC4(C)CC4)cc3)cnc12 | 6.80
* CC(C)CNc1nc2ccccc2n2c(-c3cccc(O)c3)cnc12 | 4.73
* O=C(NC1CC1)c1ccc(-c2cnc3c(NCCCN4CCCC4=O)nc4ccc(F)cc4n23)cc1 | 6.49
